- System: 786-0 renal
- EXPERIMENT DESCRIPTION: NCI tumour cell line growth inhibition, 48 h
MEASURED PARAMETER: TGI (µM)
State the answer as a number, implicitly in µM.

Examples with answers:
| SMILES STRING | QUANTITY UNIT | TGI |
| --- | --- | --- |
| COC1=CC(=O)C2=C(C1=O)[C@H]1CC[C@]3(C)[C@@H](O)CC[C@H]3[C@@H]1CC2 | µM | 37.8 |
| CC(=O)/C=C/c1cn(C(=O)OC(C)(C)C)c2ccc(Br)cc12 | µM | 25.3 |

Problem: Supply reported TGI belonging to this molecule: `CN=c1ccc2nc3ccc(N)cc3sc-2c1`
Solution: 25.9

Problem: State, in one line, measured TGI of `COc1ccc2cc1Oc1ccc(cc1)C[C@H]1c3c(cc4c(c3Oc3cc5c(cc3OC)CCN(C)[C@@H]5C2)OCO4)CCN1C`
Solution: 12

Problem: Find the measured TGI of `Cc1ccc(/C=N\NC(=O)c2[nH]c3ccc(F)cc3c2-c2ccccc2)cc1` and report it.
Solution: 23.2

====

- Test system: UACC-257 melanoma
- EXPERIMENT DESCRIPTION: NCI tumour cell line growth inhibition, 48 h
TGI by entry:
Just the number please, in µM, no unit attached.

| COMPOUND | QUANTITY UNIT | TGI |
| --- | --- | --- |
| O=C(Nc1ccc(OCc2nnc(-c3ccc(Cl)cc3)o2)c(F)c1)Nc1ccc(Cl)c(C(F)(F)F)c1 | µM | 11.1 |
| O=C(O)CN1CCN(CC(=O)O)CC(=O)[O][Hg][O]C(=O)C1 | µM | 28.7 |
| O=C(NN1C(=O)CSC12CCCCC2)c1[nH]c2ccc(Br)cc2c1-c1ccccc1 | µM | 72.5 |

Turning now to a further compound:
Problem: Specify measured TGI for C1CCC([PH+](C2CCCCC2)C2CCCCC2[PH+](C2CCCCC2)C2CCCCC2)CC1.[Au].[CH-]1CCCCC1CC1CCCC[N-]1 (stereo not drawn) .
Solution: 1.94

====

- Tested on: LOX IMVI melanoma
- EXPERIMENT DESCRIPTION: NCI tumour cell line growth inhibition, 48 h
MEASURED PARAMETER: TGI

| COMPOUND | TGI |
| --- | --- |
| O=C1NC(=O)C(N2C(=O)c3ccccc3C2=O)CC1O (configuration not stated) | > 100 µM |
| COc1cc(/C=C/c2nc(NC(=S)Nc3ccccc3)nnc2C)cc(OC)c1OC | > 100 µM |

Problem: Kindly indicate its recorded TGI. Item: OCC12C3C4C5C3C1C5C42 (configuration not stated)
Solution: > 100 µM

Problem: Indicate the recorded TGI value for this compound: `O=[N+]([O-])c1ccc(C=Cc2ccccc2)cc1.[C-]#[O+].[C-]#[O+].[C-]#[O+].[Cr]`
Solution: > 100 µM

Problem: Answer with the recorded TGI of CC(=O)C(CN(CC(C)C)CC(C)C)C(c1ccccc1)c1c(O)c2ccccc2oc1=O (configuration not stated) only.
Solution: > 100 µM

Problem: For the compound O=C(O)c1ccc(C2COc3ccc(Cl)cc3C2)cc1 (configuration not stated) , report TGI.
Solution: > 100 µM

Problem: Give reported TGI value for CC(=O)Nc1ccc(C(O)/C(=N/N)c2nc3ccc(Cl)cc3[nH]c2=O)cc1 (configuration not stated)
Solution: > 100 µM

Source: PubChem BioAssay (NCI)
